- System: PLC-PRF-5 cells
- PROCEDURE_TEXT: Inhibition of proliferation of PLC-PRF-5 cells (ATPlite)
- Assay type: cell-based
- ASSAY_CONDITIONS: Homo sapiens, PLC-PRF-5, PLC-PRF-5 cells; read-out: PLC-PRF-5 cell proliferation IC50
TEST_READOUT: IC50 (nM)
Answers are plain numbers, in nM.

Solved cases below.
> print(dat)
                         chemical.structure  experimental.value
1  Cc1cc(NC(=O)Nc2cc(F)cc(C(C)(F)F)c2)ccc1Oc1cc(NC(=O)C2CC2)ncn1                1310
2  O=C(Nc1ccc(Oc2ccnc(NC(=O)C3CC3)c2)c(F)c1)Nc1cc(C(F)(F)F)ccc1F                  52

Now, please, on to the next compound.
Challenge: What value of IC50 has been recorded for this entry: `Cc1cc(Oc2cc(NC(=O)C3CC3)ncn2)ccc1NC(=O)Nc1ccc(Cl)c(C(C)(F)F)c1`
Response given: 11000

----------
For each of the compounds below, state its pIC50.
- Test system: PLC-PRF-5 cells
- PROCEDURE_TEXT: Inhibition of proliferation of PLC-PRF-5 cells (ATPlite)
- Assay type: cell-based
- ASSAY_CONDITIONS: Homo sapiens, PLC-PRF-5, PLC-PRF-5 cells; read-out: PLC-PRF-5 cell proliferation IC50
- Source text: Inhibitory Activity of Compounds to the Proliferation of PLC-PRF-5 Cells […]
Give bare numbers, as −log10 of the molar value.

> print(dat)
                                   compound  test.readout  experimental.value
1  CN1CCN(c2cc(C(F)(F)F)cc(NC(=O)Nc3ccc(Oc4ccnc(NC(=O)C5CC5)c4)c(F)c3)n2)CC1 [Exe. 172]         pIC50                6.71
2  CC(F)(F)c1cc(NC(=O)Nc2ccc(Oc3cc(NC(=O)C4CC4)ncn3)c(F)c2)ccc1F [Exe. 106]         pIC50                6.07
3  CC(F)(F)c1ccc(F)c(NC(=O)Nc2ccc(Oc3cc(NC(=O)C4CC4)ncn3)c(F)c2)c1 [Exe. 104]         pIC50                7.00

Challenge: Need pIC50, item O=C(Nc1ccc(F)c(C(F)(F)F)c1)Nc1ccc(Oc2ccnc(NC(=O)C3CC3)c2)cc1F [Exe. 205]
Response given: 5.96

----------
I'd be grateful if you could share measured pIC50 for these entries.
- MEASUREMENT_TARGET: UniProt P15056
- Sequence (P15056 416-766): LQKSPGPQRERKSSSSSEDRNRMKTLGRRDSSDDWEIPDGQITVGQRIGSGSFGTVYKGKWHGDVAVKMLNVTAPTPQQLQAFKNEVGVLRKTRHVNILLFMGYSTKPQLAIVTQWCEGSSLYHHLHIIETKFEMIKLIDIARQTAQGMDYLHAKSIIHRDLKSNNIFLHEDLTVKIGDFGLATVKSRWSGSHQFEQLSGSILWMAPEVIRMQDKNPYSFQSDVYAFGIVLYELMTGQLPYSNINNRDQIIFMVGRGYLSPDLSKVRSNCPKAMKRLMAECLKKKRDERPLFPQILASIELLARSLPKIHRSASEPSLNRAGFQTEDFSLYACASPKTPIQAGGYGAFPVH
One number for each entry, as −log10 of the molar value.

Before answering, review these 5 worked examples.
> print(dat)
                                   compound  experimental.value
1  CC1(C(=O)Nc2cc(Oc3ccc(NC(=O)Nc4ccc(Cl)c(C(F)(F)F)c4)cc3F)ccn2)CC1                7.68
2  CC(F)(F)c1cncc(NC(=O)Nc2ccc(Oc3ccnc(NC(=O)C4CC4)c3)c(F)c2)c1                7.19
3  Cc1cc(Oc2ccnc(NC(=O)C3CC3)c2)ccc1NC(=O)Nc1ccc(Cl)c(C(C)(F)F)c1                7.93
4  Cc1cc(Oc2ccnc(NC(=O)C3CC3)c2)ncc1NC(=O)Nc1cc(C(F)(F)F)ccc1F                8.14
5  O=C(Nc1ccc(Oc2ccnc(NC(=O)C3CC3)c2)cc1)Nc1ccc(F)c(C(F)(F)F)c1                7.59

Here are 6 compounds. What values of pIC50 were reported for them?
1. O=C(Nc1cc(N2CCC(O)CC2)cc(C(F)(F)F)c1)Nc1ccc(Oc2ccnc(NC(=O)C3CC3)c2)c(F)c1
2. CC(F)(F)c1ccc(F)c(NC(=O)Nc2ccc(Oc3ccnc(NC(=O)C4CC4)c3)cc2)c1
3. O=C(Nc1ccc(Oc2ccnc(NC(=O)C3CC3)c2)cc1F)Nc1cc(C(F)(F)F)ccc1Cl
4. CC(F)(F)c1cc(NC(=O)Nc2ccc(Oc3ccnc(NC(=O)C4CC4)c3)cc2F)ccc1F
5. CC(F)(F)c1ccc(F)c(NC(=O)Nc2ccc(Oc3ccnc(NC(=O)C4CC4)c3)cc2F)c1
6. O=C(Nc1ccc(Oc2ccnc(NC(=O)C3CC3)c2)cc1)Nc1cc(F)cc(C(F)(F)F)c1

Response given:
1: 7.63; 2: 7.80; 3: 7.72; 4: 8.15; 5: 8.11; 6: 6.90

Batch: pIC50 for all items listed.
1. O=C(Nc1cccc(OC(F)(F)F)c1)Nc1ccc(Oc2ccnc(NC(=O)C3CC3)c2)cc1F
2. Cc1cc(NC(=O)Nc2cccc(OC(F)(F)F)c2)ccc1Oc1ccnc(NC(=O)C2CC2)c1
3. CC(F)(F)c1cc(NC(=O)Nc2ccc(Oc3ccnc(NC(=O)C4CC4)c3)cc2)ccc1Cl
4. O=C(Nc1ccc(Oc2ccnc(NC(=O)C3CC3)c2)cc1)Nc1cc(OCC2CNC2)cc(C(F)(F)F)c1
5. CN1CCC(Oc2cc(NC(=O)Nc3ccc(Oc4ccnc(NC(=O)C5CC5)c4)c(F)c3)cc(C(F)(F)F)c2)CC1
6. O=C(Nc1ccc(Oc2ccnc(NC(=O)C3CC3)c2)c(F)c1)Nc1cc(C(F)(F)F)ncn1
7. O=C(Nc1cc(-c2cccnc2)cc(C(F)(F)F)c1)Nc1ccc(Oc2ccnc(NC(=O)C3CC3)c2)c(F)c1
8. O=C(Nc1ccc(Cl)c(C(F)(F)F)c1)Nc1ccc(Oc2ccnc(NC(=O)C3CC3)c2)cn1

Response given:
8.03
7.85
7.42
8.43
7.15
7.02
7.56
7.61

Parameters: items (list). Returns: pIC50 for each item.
1. Cc1cc(Oc2cc(NC(=O)C3CC3)ncn2)ccc1NC(=O)Nc1ccc(Cl)c(C(F)(F)F)c1
2. CN(C)C1CCN(c2cc(NC(=O)Nc3ccc(Oc4ccnc(NC(=O)C5CC5)c4)c(F)c3)cc(C(F)(F)F)c2)C1 (stereo not drawn)
3. CC(=O)Nc1cc(NC(=O)Nc2ccc(Oc3ccnc(NC(=O)C4CC4)c3)c(F)c2)cc(C(F)(F)F)c1
4. O=C(Nc1ccc(Oc2ccnc(NC(=O)C3CC3)c2)c(F)c1)Nc1ccc(Cl)c(OC(F)(F)F)c1
5. CC1CN(c2cc(NC(=O)Nc3ccc(Oc4ccnc(NC(=O)C5CC5)c4)c(F)c3)cc(C(F)(F)F)c2)C(=O)O1 (stereo not drawn)
6. CS(=O)(=O)c1cc(NC(=O)Nc2ccc(Oc3ccnc(NC(=O)C4CC4)c3)cn2)cc(C(F)(F)F)c1
7. CC(F)(F)c1cc(NC(=O)Nc2ccc(Oc3cc(NC(=O)C4CC4)ncn3)cc2F)ccc1Cl
8. Cc1cc(Oc2ccnc(NC(=O)C3CC3)c2)ccc1NC(=O)Nc1cccc(C(F)(F)F)c1

Response given:
[7.41, 7.96, 7.89, 7.83, 7.43, 7.54, 7.62, 8.17]

----------
- System: PLC-PRF-5 cells
- PROCEDURE_TEXT: Inhibition of proliferation of PLC-PRF-5 cells (ATPlite)
- Format: cell-based
- ASSAY_CONDITIONS: Homo sapiens, PLC-PRF-5, PLC-PRF-5 cells; read-out: PLC-PRF-5 cell proliferation IC50
TEST_READOUT: pIC50
Give bare numbers, as −log10 of the molar value.

Examples from the recorded data:
> print(dat)
                                   compound  experimental.value
1  O=C(Nc1ccnc(C(F)(F)F)c1)Nc1ccc(Oc2ccnc(NC(=O)C3CC3)c2)c(F)c1 [Exe. 158]                5.98
2  CCN1CCN(c2cc(NC(=O)Nc3ccc(Oc4ccnc(NC(=O)C5CC5)c4)c(F)c3)cc(C(F)(F)F)c2)CC1 [Exe. 055]                6.38
3  CC(F)(F)c1cc(NC(=O)Nc2ccc(Oc3ccnc(NC(=O)C4CC4)c3)cc2)ccc1F [Exe. 150]                6.13

Now look at this one.
Challenge: Bench note: what pIC50 did CN1CCN(Cc2cc(NC(=O)Nc3ccc(Oc4ccnc(NC(=O)C5CC5)c4)c(F)c3)cc(C(F)(F)F)c2)CC1 [Exe. 167] show?
Response given: 5.91

----------
- Test system: PLC-PRF-5 cells
- PROCEDURE_TEXT: Inhibition of proliferation of PLC-PRF-5 cells (ATPlite)
- Format: cell-based
- ASSAY_CONDITIONS: Homo sapiens, PLC-PRF-5, PLC-PRF-5 cells; read-out: PLC-PRF-5 cell proliferation IC50
TEST_READOUT: IC50 (nM)
Give bare numbers, in nM.

Known IC50 results, listed for orientation:
> print(dat)
                                   molecule  unit.of.measure  experimental.value
1  CN1CCC(Nc2cc(NC(=O)Nc3ccc(Oc4ccnc(NC(=O)C5CC5)c4)nc3)cc(C(F)(F)F)c2)CC1               nM               10500
2  O=C(Nc1cccc(OC(F)(F)F)c1)Nc1ccc(Oc2ccnc(NC(=O)C3CC3)c2)c(F)c1               nM                 270
3  Cc1cc(Oc2cc(NC(=O)C3CC3)ncn2)ccc1NC(=O)Nc1cccc(OC(F)(F)F)c1               nM                6000
4  O=C(Nc1cc(N2CCOCC2=O)cc(C(F)(F)F)c1)Nc1ccc(Oc2ccnc(NC(=O)C3CC3)c2)c(F)c1               nM                1980

Items follow; give IC50 for each.
1. CS(=O)(=O)c1cc(NC(=O)Nc2ccc(Oc3ccnc(NC(=O)C4CC4)c3)c(F)c2)cc(C(F)(F)F)c1
2. O=C(Nc1ccc(Oc2ccnc(NC(=O)C3CC3)c2)cc1)Nc1cc(C(F)(F)F)ccc1Cl
3. O=C(Nc1cc(OC2CCOC2)cc(C(F)(F)F)c1)Nc1ccc(Oc2ccnc(NC(=O)C3CC3)c2)c(F)c1 (stereo not shown)

Response given:
1. 768
2. 642
3. 500
